Data origin: PubChem BioAssay AID248

system: L1210 leukemia ip in BDF1 mice, survival T/C; test: NCI In Vivo Anticancer Drug Screen. Data for tumor model L1210 Leukemia (intraperitoneal) in B6D2F1 (BDF1) mice; conditions: endpoint: mean survival time; dose: 200.0 mg/kg/injection; schedule: Q04DX003 (ip); vehicle: Klucel (hydroxypropylcellulose) (HPC); higher = longer survival
Toxic doses and inconclusive results are not listed.
measured_quantity: T/C

Sample COc1ccc(OC)c(NC(=O)Nc2cccc(Cl)c2Cl)c1 ; T/C observed: 90 % of control

Recorded T/C (compound O=C1NC(=O)C(c2ccccc2Cl)N1 (stereo not given) ): 100 % of control

For record CC(C)(C1c2ccccc2C(=O)c2ccccc21)[N+](=O)[O-] the listed T/C is 101 % of control

# T/C (compound: CC(Oc1ccc([N+](=O)[O-])cc1Cl)C(=O)Nc1ccc(S(=O)(=O)F)cc1 (stereo not given) ) is 100 % of control

So for Cc1cc(Oc2nc(Cl)nc(C(Cl)(Cl)Cl)c2Cl)cc(C)c1N(C)C (tested in a mixture with another compound) , the logged T/C turned out to be 105 % of control

# T/C of COc1ccc(CC(N)C(=O)O)cc1 (stereo not given) = 101 % of control

Item: NNC(=O)CCN1CC1 | T/C: 107 % of control

Entry under test: Nc1cccc(CNC(=O)COc2cccc(Cl)c2)c1 . Its T/C was 96 % of control

Record CC(=O)Nc1ccc(S(=O)(=O)Nc2ccc(C(=O)O)cc2)cc1 , field T/C: 87 % of control

Recorded result, O=C(O)COc1ccc(F)cc1Cl , T/C: 98 % of control

For Nc1nc(N)nc(-c2ccccc2N=NN2CCCC2)n1 the compound record lists T/C as 98 % of control

Noted for O=C(COc1ccc(Cl)cc1)OCCCl : its T/C reads 97 % of control

Entry COC(=O)c1ccc(C(F)(F)F)cc1O — recorded T/C = 100 % of control

Form field T/C, entry CC(C)(C)OC(=O)C1(C(=O)OC(C)(C)C)C2CCCCC21 (stereo not given) : 101 % of control

Given item O=P(OCC(Br)CBr)(OCC(Br)CBr)OCC(Br)CBr (stereo not given) , the value recorded as its T/C is 106 % of control

---

tested on: L1210 leukemia ip in BDF1 mice, survival T/C; experiment: NCI In Vivo Anticancer Drug Screen. Data for tumor model L1210 Leukemia (intraperitoneal) in B6D2F1 (BDF1) mice; settings: endpoint: mean survival time; dose: 100.0 mg/kg/injection; schedule: Q01DX001 (ip); vehicle: saline with Tween-80; higher = longer survival
Toxic doses and inconclusive results are not listed.
measured_quantity: T/C

Fill in: L1210 leukemia ip in BDF1 mice, survival T/C T/C for Cc1c(Cl)cccc1NC(=O)Nc1cccc2c(O)cccc12 = 89 % of control

Tested system L1210 leukemia ip in BDF1 mice, survival T/C; T/C recorded for C=C1CC(=O)N(c2ccc(Cl)cc2)C1=O was 97 % of control

NC(=O)N/N=C/c1[nH]c(=S)[nH]c(=O)c1Cc1ccc(Br)cc1 on L1210 leukemia ip in BDF1 mice, survival T/C gives T/C = 107 % of control

# T/C measured on L1210 leukemia ip in BDF1 mice, survival T/C for item O=C(c1ccccc1)c1ccc2c3c(cccc13)C(=O)c1ccccc1-2 = 92 % of control

Field T/C (L1210 leukemia ip in BDF1 mice, survival T/C), entry CCOC(=O)c1nc(N)nc(N)c1-c1ccc(Cl)cc1 : 102 % of control

Entry O=C(NC1CCCCC1)N(O)C12CC3CC(CC(C3)C1)C2 , L1210 leukemia ip in BDF1 mice, survival T/C data, T/C value: 108 % of control

Nc1ccn(CCCOc2ccccc2)c(=O)n1 tested on L1210 leukemia ip in BDF1 mice, survival T/C gave T/C: 97 % of control

Record Cc1c2ccccc2cc2[n+]1CCc1ccccc1-2 has L1210 leukemia ip in BDF1 mice, survival T/C T/C equal to 98 % of control

Per the reported L1210 leukemia ip in BDF1 mice, survival T/C data, O=[N+]([O-])c1ccc(\C=C/C=C/C=C/C2(CCl)OCCO2)cc1 has T/C of 91 % of control

L1210 leukemia ip in BDF1 mice, survival T/C assay, compound C=CCc1ccc(OC(=O)Nc2cc(Cl)ccc2OC)c(OC)c1 , recorded T/C = 102 % of control

Summary: CC1CCCC(C)N1N (stereo not drawn) , L1210 leukemia ip in BDF1 mice, survival T/C, T/C = 97 % of control

The reported L1210 leukemia ip in BDF1 mice, survival T/C T/C of COc1cc(C=O)cc(C=O)c1O is 90 % of control

L1210 leukemia ip in BDF1 mice, survival T/C data for CS(=O)CCCC(=O)O (stereo not drawn) ; its T/C: 102 % of control
